# SYSTEM_TESTED: T1, RSV postfusion F (postF), subtype A (respiratory syncytial virus subtype A, UniProt P03420 26-513)
# T1 construct: also called Postfusion subtype A; F deltaFP
# TEST_SUMMARY: BLI
REPORTED_METRIC: binding result

// worked examples, binding result included
- BINDER: "ADI-24833 (antibody, V domains shown, full-length IgG) VH: QVQLVESGGGLVKPGGSLRLSCAASGFTFSSYSMNWVRQAPGKGLEWVSSISSSSSYIYYADSVKGRFTISRDNAKNSLYLQMNSLRAEDTAVYYCARALTYYYDSSGHGADYWGQGTLVTVSS VL: QSVVTQPPSVSGAPGQRVTISCTGSSSNIGAGYDVHWYQQLPGTAPKLLIYGNSNRPSGVPDRFSGSKSGTSASLAITGLQAEDEADYYCQSYDSSLSVVFGGGTKLTVL"
  REPORTED_METRIC: "binding result"
  RESULT_VALUE: "no binding"
- BINDER: "ADI-19430 (antibody, V domains shown, full-length IgG) VH: QVQLVQSGAEVKKPGSSVKVSCKASGGTFSSYTISWVRQAPGQGLEWMGRIIPILGIANYAQKFQGRVTITADKSTSTAYMELSSLRSEDTAVYYCARDGGPYYYDSSGYYRLDYWGQGTLVTVSS VL: DIRMTQSPLSLPVTLGQPASISCRSSQSLVYSDGNTYLNWFQQRPGQSPRRLIYKVSNRDSGVPDRFSGSGSGTDFTLKISRVEAEDVGVYYCMQGTHWTYTFGQGTKLEIK"
  REPORTED_METRIC: "binding result"
  RESULT_VALUE: "no binding"
- BINDER: "ADI-19491 (antibody, V domains shown, full-length IgG) VH: QVQLVQSGPTLVKPTQTLTLTCTFSGFSLSTSGVGVGWIRQPPGKALEWLALIYWDDDKRYSPSLKSRLTITKDTSKNQVVLTMTNMDPVDTATYYCAHRRATTVTTGYFDYWGQGTLVTVSS VL: QSVLTQPPSVSGAPGQRVTISCTGSSSNIGAGYDVHWYQQLPGTAPKLLIYGNSNRPSGVPDRFSGSKSGTSASLAITGLQAEDEADYYCQSYDSSLSGHYVFGTGTKVTVL"
  REPORTED_METRIC: "binding result"
  RESULT_VALUE: "no binding"
- BINDER: "ADI-14392 (antibody, V domains shown, full-length IgG; also called Ab 59) VH: EVQLLESGAEVKKPGSSVKVSCKASGGTFSSYGISWVRQAPGQGLEWMGGIIPIFGTSNYAQKFQGRVTITADESTSTAYMELSSLRSEDTAVYYCALDSSGRARYYAMDVWGQGTTVTVSS VL: DIQVTQSPATLSLSPGERATLSCRASQSVSSYLAWYQQKPGQAPRLLIYDASNRATGIPARFSGSGSGTDFTLTISSLEPEDFAVYYCQQRNNWPPTFGPGTKVEIK"
  REPORTED_METRIC: "binding result"
  RESULT_VALUE: "no binding"
- BINDER: "ADI-25524 (antibody, V domains shown, full-length IgG) VH: EVQLLESGGGLVKPGGSLRLSCAASGFTFSSYSMNWVRQAPGKGLEWVSSISSSSSYIYYADSVKGRFTISRDNAKNSLYLQMNSLRAEDTAVYYCAREWSPIVVVTNAFDIWGQGTMVTVSS VL: QSVLTQPPSVSGAPGQRVTISCTGSSSNIGAGYDVHWYQQLPGTAPKLLIYGNSNRPSGVPDRFSGSKSGTSASLAITGLQAEDEADYYCQSYDSSLSGWVFGGGTKVTVL"
  REPORTED_METRIC: "binding result"
  RESULT_VALUE: "no binding"
- BINDER: "ADI-24837 (antibody, V domains shown) VH: QVQLQESGPGLVKPSETLSLTCTVSGGSISSYYWSWIRQPPGKGLEWIGYIYYSGSTNYNPSLKSRVTISVDTSKNQFSLKLSSVTAADTAVYYCARAIYYYDSSGYYYVGDAFDIWGQGTTVTVSS VL: QSVLTQPPSVSAAPGQKVTISCSGSSSNIGNNYVSWYQQLPGTAPKLLIYENNKRPSGIPDRFSGSKSGTSATLGITGLQTGDEADYYCGTWDSSLSAGVFGGGTKLTVL"
  REPORTED_METRIC: "binding result"
  RESULT_VALUE: "no binding"
- BINDER: "ADI-14366 (antibody, V domains shown, full-length IgG; also called Ab 34) VH: QVQLVQSGTEVKKPGASVKVSCKASGYTFNMYGVSWVRQAPGQGLEWMGWISAYNGNTNYAQKFQGRVTMTIDTSTTTAYMELRSLRSDDTAMYYCARDFQAEEPLSNWFDPWGQGTLVTVSS VL: DIVMTQTPSSLSASVGDRVIITCRASQSISRYINWYQKKPGKAPKFLIYAVSSLGSGVPSRFSGSGSGTDFTLTISSLQPEDFATYYCQQSYSTPFTFGPGTKVDIK"
  REPORTED_METRIC: "binding result"
  RESULT_VALUE: "no binding"
- BINDER: "ADI-24822 (antibody, V domains shown, full-length IgG) VH: QVQLVESGGGLVKPGGSLRLSCAASGFTFSSYSMNWVRQAPGKGLEWVSSISSSSSYIYYADSVKGRFTISRDNAKNSLYLQMNSLRAEDTAVYYCARDSGLGSRGDAFDIWGQGTMVTVSS VL: QSVLTQPPSVSGAPGQRVTISCTGSSSNIGAGYDVHWYQQLPGTAPKLLIYGNSNRPSGVPDRFSGSKSGTSASLAITGLQAEDEADYYCQSYDSSLSGYVFGTGTKVTVL"
  REPORTED_METRIC: "binding result"
  RESULT_VALUE: "no binding"

Return reported binding result values for all items listed beneath this line.
1. ADI-19428 (antibody, V domains shown, full-length IgG) VH: EVQLLESGGGLVKPGGSLRLSCAASGFTFSSYSMNWVRQAPGKGLEWVSSISSSSSYIYYADSVKGRFTISRDNAKNSLYLQMNSLRAEDTAVYYCARDSCSGGSCYSPRFDPWGQGTLVTVSS VL: QSVLTQPPSVSGAPGQRVTISCTGSSSNIGAGYDVHWYQQLPGTAPKLLIYGNSNRPSGVPDRFSGSKSGTSASLAITGLQAEDEADYYCQSYDSTVVFGGGTKLTVL
2. ADI-19440 (antibody, V domains shown, full-length IgG) VH: EVQLVESGGGLVQPGGSLRLSCAASGFTFSSYSMNWVRQAPGKGLEWVSYISSSSSTIYYADSVKGRFTISRDNAKNSLYLQMNSLRAEDTAVYYCAREGYSGSYGYYFDYWGQGTLVTVSS VL: QSVLTQPPSVSGAPGQRVTISCTGSSSNIGAGYDVHWYQQLPGTAPKLLIYGNSNRPSGVPDRFSGSKSGTSASLAITGLQAEDEADYYCQSYDSSLSGSVFGTGTKLTVL

1: no binding; 2: no binding
